test: Plasma pharmacokinetics in rats, single intravenous or oral administration; format: in vivo, rat (male Wistar); conditions: male, Wistar, rat, plasma; rats, intravenous 0.25 mg/kg
READOUT: AUC(0-inf)
In your response, the unit should come after the numeric value.

Provide only the value of recorded AUC(0-inf) for `CNC(=O)c1cc(C(C)(C)C)cc(NC(=O)Nc2ccc(Oc3ccnc(Nc4cc(OC)cc(OCCOCCOCCOC)c4)c3)c3ccccc23)c1OC`
0.295 µg·h/mL

Provide only the value of recorded AUC(0-inf) for `COCCOCCOCCOc1cc(Nc2nccc(Oc3ccc(NC(=O)Nc4cc(C(C)(C)C)cc(NS(C)(=O)=O)c4OC)c4ccccc34)n2)cc(OC)c1`
0.563 µg·h/mL

Provide only the value of recorded AUC(0-inf) for `COCCOCCOCCNC(=O)c1cc(Nc2cc(Oc3ccc(NC(=O)Nc4cc(C(C)(C)C)cc(NS(C)(=O)=O)c4OC)c4ccccc34)ccn2)cc(OC)c1`
0.821 µg·h/mL

Provide only the value of recorded AUC(0-inf) for `COc1c(NC(=O)Nc2ccc(Oc3ccnc(Nc4ccccc4)c3)c3ccccc23)cc(C(C)(C)C)cc1C(=O)NC1COC1`
0.952 µg·h/mL

Provide only the value of recorded AUC(0-inf) for `COc1cc(Nc2cc(Oc3ccc(NC(=O)Nc4cc(C(C)(C)C)cc(NS(C)(=O)=O)c4OC)c4ccccc34)ccn2)cc(C(=O)NCCN2CCOCC2)c1`
0.59 µg·h/mL
